# System: Aβ secretion
# protocolText: Secreted total Aβ ELISA in conditioned media of H4βAPP695 wt cells
# Assay type: cell-based, human
# protocolConditions: Homo sapiens, 24 h, 10 μM; relative to vehicle treated control cells; H4βAPP695 wt cells; read-out: % β Decrease
propertyLabel: inhibition at 10 µM (%)
All answers are understood in %, so give the number only.

Request: Enter measured inhibition at 10 µM, system Aβ secretion, for the molecule shown: O=C(NCCSCc1ccc(Cl)cc1)c1ccc(Cl)cc1Cl [Compound 2]
Response: 5.3

Request: Enter measured inhibition at 10 µM, system Aβ secretion, for the molecule shown: COCCCNC(=O)c1c(Cl)cccc1Cl [Compound 8]
Response: 6.9

Request: Enter measured inhibition at 10 µM, system Aβ secretion, for the molecule shown: O=C(NCCSCc1ccc(Cl)c(Cl)c1)c1ccccc1Cl [Compound 5]
Response: 0.7

Request: Enter measured inhibition at 10 µM, system Aβ secretion, for the molecule shown: O=C(NCCSCc1ccc(F)cc1)c1c(F)cccc1Cl [Compound 22]
Response: 27.3

----------
Assignment: determine reported inhibition at 10 µM for the given molecules.
# System: THLE-3 human hepatoma cells
# protocolText: Drug activity persistence after incubation with THLE-3 hepatoma cells
# Type: in vitro ADME
# protocolConditions: Homo sapiens, THLE3, 24 h, 10 μM on H4 cells, without preincubation with hepatoma cells; read-out: hepatoma incubation No total Aβ (% decrease)
All answers are understood in %, so give the number only.

Request: Identify inhibition at 10 µM associated with the molecule COc1cc(Cl)cc(CSCCNC(=O)c2c(Cl)cccc2Cl)c1
Response: 67.7

Request: Identify inhibition at 10 µM associated with the molecule COc1cccc(CSCCNC(=O)c2c(Cl)cccc2Cl)c1
Response: 60.6

Request: Identify inhibition at 10 µM associated with the molecule O=C(NCCSCc1cccc(Cl)c1)c1c(Cl)cccc1Cl
Response: 69.4

Request: Identify inhibition at 10 µM associated with the molecule COc1cccc(CSCCNC(=O)c2c(Cl)cccc2Cl)c1OC
Response: 57.8

Request: Identify inhibition at 10 µM associated with the molecule O=C(NCCSCc1ccccc1Cl)c1c(Cl)cccc1Cl
Response: 75.6

Request: Identify inhibition at 10 µM associated with the molecule O=C(NCCSCc1cccc(O)c1)c1c(Cl)cccc1Cl
Response: 56.4

Request: Identify inhibition at 10 µM associated with the molecule Cc1cccc(CSCCNC(=O)c2c(Cl)cccc2Cl)c1
Response: 70.5

Request: Identify inhibition at 10 µM associated with the molecule O=C(NCCSCc1ccccc1)c1c(Cl)cccc1Cl
Response: 51.6

Request: Identify inhibition at 10 µM associated with the molecule O=C(NCCSCc1cccc(I)c1)c1c(Cl)cccc1Cl
Response: 84.4

----------
# Tested on: Aβ secretion
# protocolText: Secreted total Aβ ELISA in conditioned media of H4βAPP695 wt cells
# Type: cell-based, human
# protocolConditions: Homo sapiens, 24 h, 30 μM; H4βAPP695 wt cells, 24 h; read-out: Total Aβ (% decrease) 30 μM Mean
propertyLabel: inhibition at 30 µM (%)
All answers are understood in %, so give the number only.

Request: Identify inhibition at 30 µM associated with the compound COc1cccc(CSCCNC(=O)c2c(OC)cccc2OC)c1
Response: -0.6

Request: Identify inhibition at 30 µM associated with the compound O=C(NCCSCc1ccccc1)c1c(Cl)cccc1Cl
Response: 58.6

Request: Identify inhibition at 30 µM associated with the compound O=C(NCCS(=O)(=O)Cc1cccc(Cl)c1)c1c(Cl)cccc1Cl
Response: 9.3

Request: Identify inhibition at 30 µM associated with the compound O=C(O)c1cccc(CSCCNC(=O)c2c(Cl)cccc2Cl)c1
Response: -3.8

Request: Identify inhibition at 30 µM associated with the compound O=C(NCCSCc1cccc(I)c1)c1c(Cl)cccc1Cl
Response: 88.3

Request: Identify inhibition at 30 µM associated with the compound O=C(NCCSCc1cccc(Cl)c1)c1c([N+](=O)[O-])cccc1[N+](=O)[O-]
Response: 52.9

Request: Identify inhibition at 30 µM associated with the compound O=C(NCCS(=O)(=O)Cc1cccc(O)c1)c1c(Cl)cccc1Cl
Response: 9.6

Request: Identify inhibition at 30 µM associated with the compound COc1cccc(C[S+]([O-])CCNC(=O)c2c(Cl)cccc2Cl)c1 (centres unmarked)
Response: -15.8

Request: Identify inhibition at 30 µM associated with the compound O=C(NCCSCc1cccc(O)c1)c1c(O)cccc1O
Response: -25.2

Request: Identify inhibition at 30 µM associated with the compound COc1cccc(CSCCNC(=O)c2c(Cl)cccc2OC)c1
Response: -4.7

Request: Identify inhibition at 30 µM associated with the compound COc1cccc(CSCCNC(=O)c2c([N+](=O)[O-])cccc2[N+](=O)[O-])c1
Response: -2.8

Request: Identify inhibition at 30 µM associated with the compound Cc1cccc(C)c1C(=O)NCCSCc1cccc(Cl)c1
Response: 51.6

Request: Identify inhibition at 30 µM associated with the compound O=C(NCCSCc1ccc(Cl)cc1)c1c(Cl)cccc1Cl
Response: 36.5

Request: Identify inhibition at 30 µM associated with the compound O=C(NC1CC1)c1cccc(CSCCNC(=O)c2c(Cl)cccc2Cl)c1
Response: 11

Request: Identify inhibition at 30 µM associated with the compound COc1cccc(CS(=O)(=O)CCNC(=O)c2c(Cl)cccc2Cl)c1
Response: 4.9

Request: Identify inhibition at 30 µM associated with the compound NC(=O)c1c(Cl)cccc1CSCC(=O)c1c(Cl)cccc1Cl
Response: 49.7

Request: Identify inhibition at 30 µM associated with the compound Clc1cccc(CSCCNCc2c(Cl)cccc2Cl)c1
Response: 45.6

Request: Identify inhibition at 30 µM associated with the compound O=C(NCCSCc1cccc(F)c1)c1c(Cl)cccc1Cl
Response: 36.1

Request: Identify inhibition at 30 µM associated with the compound COc1ccc(CSCCNC(=O)c2c(Cl)cccc2Cl)cc1
Response: 1.1

Request: Identify inhibition at 30 µM associated with the compound O=C(NCCSCc1cccc(OCCOCCO)c1)c1c(Cl)cccc1Cl
Response: 24.3

----------
# Test system: H4βAPP695 wt cells
# protocolText: Cytotoxicity by total cell protein content (BCA) of H4βAPP695 wt cells
# protocolConditions: 10 μM; cytotoxicity
Assignment: determine reported Cell protein (% decrease) 10 μM Mean for the given compounds.
All answers are understood in %, so give the number only.

Request: Identify Cell protein (% decrease) 10 μM Mean associated with the compound O=C(NCCSCc1cccc(F)c1)c1c(Cl)cccc1Cl [Compound 47]
Response: 2.6

Request: Identify Cell protein (% decrease) 10 μM Mean associated with the compound O=C(NCCSCc1cc(O)cc(O)c1)c1c(Cl)cccc1Cl [Compound 59]
Response: −0.4

Request: Identify Cell protein (% decrease) 10 μM Mean associated with the compound Nc1cccc(CSCCNC(=O)c2c(Cl)cccc2Cl)c1 [Compound 41]
Response: 15.3

Request: Identify Cell protein (% decrease) 10 μM Mean associated with the compound O=C(NC1CC1)c1cccc(CSCCNC(=O)c2c(Cl)cccc2Cl)c1 [Compound 68]
Response: 0

Request: Identify Cell protein (% decrease) 10 μM Mean associated with the compound O=C(NCCSCc1cccc([N+](=O)[O-])c1)c1c(Cl)cccc1Cl [Compound 40]
Response: 7.5

Request: Identify Cell protein (% decrease) 10 μM Mean associated with the compound O=C(NCCSCc1cccc(NC(=O)C2CC2)c1)c1c(Cl)cccc1Cl [Compound 69]
Response: 3

Request: Identify Cell protein (% decrease) 10 μM Mean associated with the compound O=C(NCC[S+]([O-])Cc1cccc(Cl)c1)c1c(Cl)cccc1Cl (stereo not drawn) [Compound 71]
Response: −4.9

Request: Identify Cell protein (% decrease) 10 μM Mean associated with the compound COc1cccc(CSCCNC(=O)c2c(OC)cccc2OC)c1 [Compound 34]
Response: 0.5

Request: Identify Cell protein (% decrease) 10 μM Mean associated with the compound O=C(NCCS(=O)(=O)Cc1cccc(Cl)c1)c1c(Cl)cccc1Cl [Compound 66]
Response: −2.2

----------
# Tested on: Aβ secretion
# protocolText: Secreted total Aβ ELISA in conditioned media of H4βAPP695 wt cells
# Type: cell-based, human
# protocolConditions: Homo sapiens, 24 h, 30 μM; H4βAPP695 wt cells, 24 h; read-out: Total Aβ (% decrease) 30 μM Mean
# Procedure: H4βAPP695 wt cells, a human […] cell line stably transfected with a wtβAPP695 expression vector construct under the control of a CMV promoter (kindly provided by Dr. Chris Eckman from Mayo Clinic, Florida) were cultured as previously described. Twenty-four hours before drug treatment, the media was replaced with serum-free media. […] Transepithelial resistance was measured in each well and found to be >160 Ω/cm^2. […]
propertyLabel: inhibition at 30 µM (%)
All answers are understood in %, so give the number only.

Request: Enter measured inhibition at 30 µM, system Aβ secretion, for the molecule shown: O=C(NCCSCc1cccc(NC(=O)C2CC2)c1)c1c(Cl)cccc1Cl
Response: -2

Request: Enter measured inhibition at 30 µM, system Aβ secretion, for the molecule shown: COc1cc(CSCCNC(=O)c2c(Cl)cccc2Cl)cc(OC)c1
Response: 80.4

Request: Enter measured inhibition at 30 µM, system Aβ secretion, for the molecule shown: O=C(NCCSCc1cccc(Cl)c1)c1c(F)cccc1F
Response: 21.6

Request: Enter measured inhibition at 30 µM, system Aβ secretion, for the molecule shown: N#Cc1cccc(CSCCNC(=O)c2c(Cl)cccc2Cl)c1
Response: 38.7
